All figures here come from patent US20240316047A1.

Tested Target: Human recombinant DHX9 protein (Homo sapiens (Human), UniProt Q08211)
Sequence (Q08211 whole entry): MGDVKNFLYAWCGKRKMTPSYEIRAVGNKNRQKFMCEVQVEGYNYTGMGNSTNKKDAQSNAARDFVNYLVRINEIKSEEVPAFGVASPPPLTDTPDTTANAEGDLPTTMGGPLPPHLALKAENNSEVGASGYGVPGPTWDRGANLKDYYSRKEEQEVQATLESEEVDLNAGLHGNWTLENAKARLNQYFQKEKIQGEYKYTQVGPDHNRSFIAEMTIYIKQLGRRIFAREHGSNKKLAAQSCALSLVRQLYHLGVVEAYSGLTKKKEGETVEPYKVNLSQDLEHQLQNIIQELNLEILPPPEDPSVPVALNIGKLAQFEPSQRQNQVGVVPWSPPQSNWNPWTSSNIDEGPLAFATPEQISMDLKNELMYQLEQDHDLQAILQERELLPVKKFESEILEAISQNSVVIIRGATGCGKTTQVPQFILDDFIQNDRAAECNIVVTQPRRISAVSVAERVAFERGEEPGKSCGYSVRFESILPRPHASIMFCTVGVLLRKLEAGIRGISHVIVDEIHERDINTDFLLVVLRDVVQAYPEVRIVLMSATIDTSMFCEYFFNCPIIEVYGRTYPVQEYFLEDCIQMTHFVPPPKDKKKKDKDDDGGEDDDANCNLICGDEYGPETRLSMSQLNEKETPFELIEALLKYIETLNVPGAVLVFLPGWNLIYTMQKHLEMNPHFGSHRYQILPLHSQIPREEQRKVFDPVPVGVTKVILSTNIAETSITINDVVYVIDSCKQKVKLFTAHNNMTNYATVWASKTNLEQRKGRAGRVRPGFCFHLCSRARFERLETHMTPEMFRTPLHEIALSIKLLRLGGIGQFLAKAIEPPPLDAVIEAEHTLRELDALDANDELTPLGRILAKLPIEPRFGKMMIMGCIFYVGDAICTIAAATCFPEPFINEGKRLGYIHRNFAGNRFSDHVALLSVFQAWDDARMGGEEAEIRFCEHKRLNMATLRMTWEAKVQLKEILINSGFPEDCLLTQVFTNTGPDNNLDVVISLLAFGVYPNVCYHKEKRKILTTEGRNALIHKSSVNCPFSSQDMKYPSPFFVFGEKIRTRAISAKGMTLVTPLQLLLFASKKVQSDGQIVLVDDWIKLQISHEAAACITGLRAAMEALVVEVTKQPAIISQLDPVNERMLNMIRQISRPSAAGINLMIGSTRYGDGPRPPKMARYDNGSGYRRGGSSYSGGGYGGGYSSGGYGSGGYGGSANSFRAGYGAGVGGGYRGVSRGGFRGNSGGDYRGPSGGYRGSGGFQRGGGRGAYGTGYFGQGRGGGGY
Protocol Details: DHX9 ATPase assay (ADP-Glo)
Format: biochemical
DHX9 Biochemical Max Inhibition values by entry
Answer using only a numeral; do not append any unit.

Below are worked cases with known answers.
[[record]]
molecule = "Cc1cc(C(=O)Nc2cc(Cl)cc(NS(C)(=O)=O)c2)cn1-c1ncc(N2CCC(F)(F)C2)cc1F [Example 408]"
numeric_value = 63

[[record]]
molecule = "Cc1cc(C(=O)Nc2cc(Cl)cc(NS(C)(=O)=O)c2)cn1-c1ncc(N2CC(F)(F)C2)cn1 [Example 418]"
numeric_value = 70.25

[[record]]
molecule = "CCS(=O)(=O)Nc1cc(Cl)cc(NC(=O)c2cc(-c3ncc(F)cc3OCc3nccs3)c(C)s2)c1 [Example 622]"
numeric_value = 62.9


[in] Read the entry CN1CCN(c2csc(C(=O)Nc3cc(Cl)cc(NS(C)(=O)=O)c3)c2)CC1=O [Example 661] and write its reported DHX9 Biochemical Max Inhibition.
[out] 78.6

====

Tested Target: Human recombinant DHX9 protein (Homo sapiens (Human))
Protocol Details: DHX9 ATPase assay (ADP-Glo)
Condition Notes: read-out: DHX9 Biochemical Inflection Point
Result Type: pIC50
Remember, pIC50 is on a log scale: it is -log10 of the molar concentration.

[in] Read the entry Cc1sc(C(=O)Nc2cc(Cl)cc(NS(C)(=O)=O)c2)cc1-c1ncccc1CC(=O)N(C)C and write its reported pIC50.
[out] 7.08

[in] Read the entry Cc1cc(C(=O)Nc2cc(Cl)cc(NS(C)(=O)=O)c2)cn1-c1ncc(N2CCOC2=O)cn1 and write its reported pIC50.
[out] 7.48

[in] Read the entry CS(=O)(=O)Nc1cc(Cl)cc(NC(=O)c2cnn(-c3ncccc3OCc3ccncc3)c2)c1 and write its reported pIC50.
[out] 7.22

====

pIC50 values by entry
Tested Target: Human recombinant DHX9 protein (Homo sapiens (Human), UniProt Q08211)
Protocol Details: DHX9 ATPase assay (ADP-Glo)
Condition Notes: read-out: DHX9 Biochemical Inflection Point
Remember, pIC50 is on a log scale: it is -log10 of the molar concentration.

Below are worked cases with known answers.
[[record]]
item_smiles = "CS(=O)(=O)Nc1cc(Cl)cc(NC(=O)c2cnn(-c3ncccc3OCc3ncc[nH]3)c2)c1"
numeric_value = 7.31

[[record]]
item_smiles = "Cc1cc(F)cc(C#N)c1-c1cc(C(=O)Nc2cc(Cl)cc(NS(C)(=O)=O)c2)cn1C"
numeric_value = 7.16

[[record]]
item_smiles = "CC(C)C(=O)N1CCN(c2ccc(-n3cc(C(=O)Nc4cc(Cl)cc(NS(C)(=O)=O)c4)cn3)nc2)CC1"
numeric_value = 7.70


[in] Enter pIC50 (test system Human recombinant DHX9 protein (Homo sapiens (Human), UniProt Q08211)) for Cn1cc(C(=O)Nc2cc(Cl)cc(NS(C)(=O)=O)c2)cc1-c1ncccc1OCC1CC1
[out] 7.77

[in] Enter pIC50 (test system Human recombinant DHX9 protein (Homo sapiens (Human), UniProt Q08211)) for CC(C)(C)Oc1cnc(-c2cc(C(=O)Nc3cc(Cl)cc(NS(C)(=O)=O)c3)sc2CO)nc1
[out] 7.74

[in] Enter pIC50 (test system Human recombinant DHX9 protein (Homo sapiens (Human), UniProt Q08211)) for Cc1cc(C(=O)Nc2cc(Cl)cc(NS(C)(=O)=O)c2)cn1-c1ncc(Cl)cn1
[out] 6.83

[in] Enter pIC50 (test system Human recombinant DHX9 protein (Homo sapiens (Human), UniProt Q08211)) for Cc1cccnc1-c1nc(C(=O)Nc2cc(Br)cc(NS(C)(=O)=O)c2)cn1C
[out] 6.60

[in] Enter pIC50 (test system Human recombinant DHX9 protein (Homo sapiens (Human), UniProt Q08211)) for CN(C)C(=O)c1cccc(OCc2cccc(F)c2)c1-n1cc(C(=O)Nc2cc(Cl)cc(NS(C)(=O)=O)c2)cn1
[out] 6.70

[in] Enter pIC50 (test system Human recombinant DHX9 protein (Homo sapiens (Human), UniProt Q08211)) for CN1CCN(c2cnc(-n3cc(C(=O)Nc4cc(Cl)cc(NS(C)(=O)=O)c4)cn3)cn2)CC1=O
[out] 7.71

====

Tested Target: Human recombinant DHX9 protein (Homo sapiens (Human))
Protocol Details: DHX9 ATPase assay (ADP-Glo)
Condition Notes: read-out: DHX9 Biochemical Inflection Point
Result Type: pIC50
Remember, pIC50 is on a log scale: it is -log10 of the molar concentration.

Below are worked cases with known answers.
[[record]]
compound = "CSc1ccc(-n2cc(C(=O)Nc3cc(Cl)cc(NS(C)(=O)=O)c3)cn2)nc1 [Example 218]"
numeric_value = 7.12

[[record]]
compound = "CS(=O)(=O)Nc1cc(Cl)cc(NC(=O)c2cccc(-c3ccncc3)c2)c1 [Example 14]"
numeric_value = 6.45

[[record]]
compound = "CS(=O)(=O)Nc1cc(Cl)cc(NC(=O)c2cnn([C@H]3CC[C@H]3O)c2)c1 (single isomer, unassigned) [Example 306b]"
numeric_value = 6.60

[[record]]
compound = "CS(=O)(=O)Nc1cc(F)cc(NC(=O)c2cc(-c3ncccc3OCc3ccccc3)cs2)c1 [Example 214]"
numeric_value = 7.06

[[record]]
compound = "CS(=O)(=O)Nc1cc(Cl)cc(NC(=O)c2cc(-c3ncccc3F)n(CC(F)(F)F)c2)c1 [Example 564]"
numeric_value = 7.15


[in] Read the entry CCS(=O)(=O)Nc1cc(Cl)cc(NC(=O)c2cc(-c3ncc(F)cc3F)c(C)s2)c1 [Example 347] and write its reported pIC50.
[out] 7.47

[in] Read the entry Cc1ccc2sc(C(=O)Nc3cc(Cl)cc(NS(C)(=O)=O)c3)cc2c1 [Example 331] and write its reported pIC50.
[out] 6.71

[in] Read the entry CC(C)(C)OC(=O)N1CC2(CC(n3cc(C(=O)Nc4cc(Cl)cc(NS(C)(=O)=O)c4)cn3)C2)C1 [Example 144] and write its reported pIC50.
[out] 6.65

[in] Read the entry CS(=O)(=O)Nc1cc(Cl)cc(NC(=O)c2cnn(-c3ncccc3OCc3nccs3)c2)c1 [Example 205] and write its reported pIC50.
[out] 7.65

[in] Read the entry CS(=O)(=O)Nc1cc(Cl)cc(NC(=O)c2c[nH]c(-c3ccccc3)n2)c1 [Example 6] and write its reported pIC50.
[out] 7.04

====

Tested Target: Human recombinant DHX9 protein (Homo sapiens (Human))
Protocol Details: DHX9 ATPase assay (ADP-Glo)
Condition Notes: read-out: DHX9 Biochemical Inflection Point
Result Type: IC50 (nM)
// return numeric value only (unit: nM, not printed)

[in] Read the entry Cc1sc(C(=O)Nc2cc(Br)cc(NS(C)(=N)=O)c2)cc1-c1ccccn1 (centres unmarked) [Example 123] and write its reported IC50.
[out] 14.8

====

pIC50 values by entry
Tested Target: Human recombinant DHX9 protein (Homo sapiens (Human), UniProt Q08211)
Protocol Details: DHX9 ATPase assay (ADP-Glo)
Condition Notes: read-out: DHX9 Biochemical Inflection Point
Remember, pIC50 is on a log scale: it is -log10 of the molar concentration.

[in] Enter pIC50 (test system Human recombinant DHX9 protein (Homo sapiens (Human), UniProt Q08211)) for CS(=O)(=O)Nc1cc(Cl)cc(NC(=O)c2cnn(C3CCOC3)c2)c1 (stereo not drawn) [Example 182]
[out] 6.74

[in] Enter pIC50 (test system Human recombinant DHX9 protein (Homo sapiens (Human), UniProt Q08211)) for COc1cc(C(F)(F)F)cnc1-c1cc(C(=O)Nc2cc(Cl)cc(NS(C)(=O)=O)c2)sc1C [Example 550]
[out] 7.60

====

Tested Target: Human recombinant DHX9 protein (Homo sapiens (Human), UniProt Q08211)
Protocol Details: DHX9 ATPase assay (ADP-Glo)
Assay type: biochemical
DHX9 Biochemical Max Inhibition values by entry
Answer using only a numeral; do not append any unit.

[in] Read the entry CS(=O)(=O)Nc1cc(Cl)cc(NC(=O)c2cnn(-c3ncc(N4CC5(COC5)C4)cc3O)c2)c1 and write its reported DHX9 Biochemical Max Inhibition.
[out] 68.5

[in] Read the entry Cc1cc(C(=O)Nc2cc(Cl)cc(NS(C)(=O)=O)c2)cn1-c1ccc(N(C)C2CCOC2)cn1 (stereo not drawn) [Example 674] and write its reported DHX9 Biochemical Max Inhibition.
[out] 66.5

[in] Read the entry COc1ccc(-n2cc(C(=O)Nc3cc(Cl)cc(NS(C)(=O)=O)c3)cc2C)nc1 and write its reported DHX9 Biochemical Max Inhibition.
[out] 78.5

====

DHX9 Biochemical Max Inhibition values by entry
Tested Target: Human recombinant DHX9 protein (Homo sapiens (Human))
Protocol Details: DHX9 ATPase assay (ADP-Glo)
Format: biochemical
// return numeric value only (unit: %, not printed)

[[record]]
compound = "Cc1sc(C(=O)Nc2cc(Br)cc(NS(C)(=O)=O)c2)cc1-c1ccccc1O [Example 20]"
unit_string = "%"
numeric_value = 62.5

[[record]]
compound = "CS(=O)(=O)Nc1cc(Cl)cc(NC(=O)c2cnn(C3CCOC3)c2)c1 (stereo not drawn) [Example 182]"
unit_string = "%"
numeric_value = 73.4


Note: attention shifts to another entry.
[in] Read the entry CN1CCN(c2cnc(-n3cc(C(=O)Nc4cc(Cl)cc(NS(C)(=O)=O)c4)cn3)c(OCc3cccnc3)c2)CC1=O [Example 193] and write its reported DHX9 Biochemical Max Inhibition.
[out] 65.8
